- Target Or Test System: UniProt:P27487
- Sequence (P27487 whole entry, species assumed): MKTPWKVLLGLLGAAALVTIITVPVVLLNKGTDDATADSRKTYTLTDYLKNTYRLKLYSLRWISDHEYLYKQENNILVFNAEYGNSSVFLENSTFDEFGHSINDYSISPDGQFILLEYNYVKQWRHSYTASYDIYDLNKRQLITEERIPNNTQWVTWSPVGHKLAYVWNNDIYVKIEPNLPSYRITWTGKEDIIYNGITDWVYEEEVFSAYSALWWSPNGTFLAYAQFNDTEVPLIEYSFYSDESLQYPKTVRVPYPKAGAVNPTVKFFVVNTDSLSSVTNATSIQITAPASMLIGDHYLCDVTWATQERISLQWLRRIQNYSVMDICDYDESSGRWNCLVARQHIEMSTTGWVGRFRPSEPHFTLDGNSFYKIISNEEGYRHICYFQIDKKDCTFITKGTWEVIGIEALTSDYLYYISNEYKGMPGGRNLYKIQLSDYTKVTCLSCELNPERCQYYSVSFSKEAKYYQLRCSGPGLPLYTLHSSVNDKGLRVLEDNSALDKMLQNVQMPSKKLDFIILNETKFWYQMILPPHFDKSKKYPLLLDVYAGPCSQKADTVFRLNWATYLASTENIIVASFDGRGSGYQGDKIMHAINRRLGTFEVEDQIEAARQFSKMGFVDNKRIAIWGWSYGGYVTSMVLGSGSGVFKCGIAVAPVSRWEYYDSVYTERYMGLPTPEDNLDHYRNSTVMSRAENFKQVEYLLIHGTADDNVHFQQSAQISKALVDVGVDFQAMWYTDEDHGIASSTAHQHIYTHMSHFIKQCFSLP
- Assay Overview: biochemical
- Particulars: values marked with "*" are ID50 values; read-out: IC50DPIV, values marked with "*" = ID50
pIC50: −log10 of the molar value.
# if value of pIC50 reaches 4, tag 1.0; if it stays below, tag 0.0

# Compound, Cat
data = [
    ("Cc1cc(NNC(=O)COc2ccc(Cl)cc2Cl)nc(NS(=O)(=O)c2ccccc2)n1 [D9.015]", 0.0),
    ("Cc1ccc(OCC(=O)N/N=C/c2ccccc2OC(=O)c2ccc([N+](=O)[O-])cc2)cc1 [D10.131]", 0.0),
    ("CCn1c2ccccc2c2cc(/C=N/NC(=O)c3ccc([N+](=O)[O-])cc3)ccc21 [D10.116]", 0.0),
    ("COc1ccc(S(=O)(=O)N(CC(=O)N/N=C/c2ccc(C(C)C)cc2)c2cc(Cl)ccc2OC)cc1OC [D10.139]", 0.0),
    ("COc1cccc(/C=N/NC(=O)c2ccc(OCc3cccc(Br)c3)cc2)c1OC [D10.140]", 0.0),
    ("COC(=O)c1ccc(/C=N/NC(=O)c2cc(C34CC5CC(CC(C5)C3)C4)n[nH]2)cc1 [D10.129]", 0.0),
    ("CCC(=O)Oc1cccc(N2C(=O)C3C4C=CC(C3C2=O)C2C(=O)N(c3cccc(OC(=O)CC)c3)C(=O)C42)c1 (stereo not shown) [D3.045]", 1.0),
    ("N#C/C(=C\\c1ccc(-c2ccc(Cl)cc2)o1)C(=O)Nc1cccc([N+](=O)[O-])c1 [D4.114]", 0.0),
    ("CSc1ccc(/C=N/NC(=O)c2cccs2)cc1 [D10.141]", 0.0),
    ("Cc1ccccc1NC(=O)C(=O)N/N=C/c1cccc(Cl)c1 [D2.008]", 0.0),
    ("O=C(N/N=C/c1cccc([N+](=O)[O-])c1)c1ccc(NCc2ccccc2)cc1 [D10.126]", 0.0),
    ("O=C(Nc1cccc(/N=C/c2cc(/N=N\\c3ccccc3Cl)ccc2O)c1)c1ccco1 [D6.003]", 1.0),
    ("COc1ccc(/C=C(\\NC(=O)c2ccccc2)C(=O)N/N=C/c2ccc(OC)c(COc3ccc(C(=O)OCC(C)C)cc3)c2)cc1 [D10.117]", 0.0),
]

Values compiled from patent US20070037785A1.
